Several reports have described Ki for Metabotropic glutamate receptor 2 (Homo sapiens, UniProt Q14416); a selection of those results is presented here.
Express your answer in nM, writing the number without its unit.

Ask: Fill in Ki for NC(=O)C(N)[C@@H]1[C@@H](C(=O)O)[C@@H]1c1ccccc1 (stereo not given in full) tested with Metabotropic glutamate receptor 2 (Homo sapiens, UniProt Q14416).
Sequence (Q14416 whole entry): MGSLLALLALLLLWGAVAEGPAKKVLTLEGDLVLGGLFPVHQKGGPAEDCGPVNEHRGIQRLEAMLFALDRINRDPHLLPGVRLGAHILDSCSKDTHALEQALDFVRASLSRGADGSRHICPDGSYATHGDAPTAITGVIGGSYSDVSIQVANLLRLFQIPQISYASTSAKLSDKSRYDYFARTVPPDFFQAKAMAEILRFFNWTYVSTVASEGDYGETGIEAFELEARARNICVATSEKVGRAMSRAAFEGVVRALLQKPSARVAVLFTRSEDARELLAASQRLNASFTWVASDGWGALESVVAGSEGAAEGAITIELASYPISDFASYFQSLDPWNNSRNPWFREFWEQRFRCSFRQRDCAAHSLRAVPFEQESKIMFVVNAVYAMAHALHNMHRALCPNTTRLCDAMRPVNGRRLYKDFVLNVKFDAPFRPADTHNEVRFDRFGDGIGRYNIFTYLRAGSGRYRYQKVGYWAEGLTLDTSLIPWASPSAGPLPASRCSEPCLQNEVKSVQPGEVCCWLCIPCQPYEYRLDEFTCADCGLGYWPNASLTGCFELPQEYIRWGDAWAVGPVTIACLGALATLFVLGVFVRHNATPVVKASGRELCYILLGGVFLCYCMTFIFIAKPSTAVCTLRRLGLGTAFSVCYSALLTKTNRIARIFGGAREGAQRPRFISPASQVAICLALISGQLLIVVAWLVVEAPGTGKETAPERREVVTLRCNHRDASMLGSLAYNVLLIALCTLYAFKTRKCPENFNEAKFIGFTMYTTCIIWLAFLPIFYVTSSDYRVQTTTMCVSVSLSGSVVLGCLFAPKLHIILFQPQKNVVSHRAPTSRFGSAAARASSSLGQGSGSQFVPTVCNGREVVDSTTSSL
Reply: 8000

Ask: Fill in Ki for `N[C@H](C(=O)O)[C@H]1C[C@H]1C(=O)O` tested with Metabotropic glutamate receptor 2 (Homo sapiens, UniProt Q14416).
Reply: 0.378

Ask: Fill in Ki for `C=C1C[C@@H]2COC(=O)[C@]2(Cc2ccc3ccccc3c2)C1` tested with Metabotropic glutamate receptor 2 (Homo sapiens, UniProt Q14416).
Reply: 140

Ask: Fill in Ki for CC(N)(C(=O)O)c1ccc(P(=O)(O)O)cc1 (stereo not given) tested with Metabotropic glutamate receptor 2 (Homo sapiens, UniProt Q14416).
Reply: 260

Ask: Fill in Ki for NC(Cn1cnc2c(=O)[nH]c(=O)[nH]c21)(C(=O)O)C1CC1C(=O)O (stereo not given) tested with Metabotropic glutamate receptor 2 (Homo sapiens, UniProt Q14416).
Reply: 10
